- System: NCI-H1915
- assay: relative viability (nuclei count vs DMSO), 5 days (fraction); higher = more cells survive
- statedConditions: first compound 0.253 µM

{"molecule": "O=c1cc(-c2cccc3c2Sc2ccccc2S3)oc(N2CCOCC2)c1 + C[C@@H](Oc1cc(-c2cnn(C3CCNCC3)c2)cnc1N)c1c(Cl)ccc(F)c1Cl [Crizotinib] (partner 1 µM)", "relative viability": 0.987}
{"molecule": "COc1nc(C)cnc1NS(=O)(=O)c1cccnc1-c1ccc(-c2nnco2)cc1 [Zibotentan] + Nc1nc2[nH]cc(CCc3ccc(C(=O)N[C@@H](CCC(=O)O)C(=O)O)cc3)c2c(=O)[nH]1 [Pemetrexed] (partner 0.2 µM)", "relative viability": 0.493}
{"molecule": "O=c1cc(-c2cccc3c2Sc2ccccc2S3)oc(N2CCOCC2)c1 + Nc1ncn([C@H]2C[C@H](O)[C@@H](CO)O2)c(=O)n1 [Decitabine] (partner 2 µM)", "relative viability": 0.277}
